# credit: PubChem BioAssay (NCI)

experiment: NCI Yeast Anticancer Drug Screen. Data for the mec2-1 strain (AID 157); settings: S. cerevisiae mec2-1 strain, hits give high values; at 50.0 µM unless noted
The panel holds about 79,000 compounds, 15% with a hit somewhere; the sample as a whole holds those more often.
MEASURED ENDPOINT: growth inhibition (%)
Answers are plain numbers, in %.

{"COMPOUND": "CC(C)C1=CCC2C(=C1)CCC1C(C)(N=C=O)CCCC21C (stereo not given)", "MEASURED ENDPOINT": "growth inhibition", "OBSERVED": -10.1}

Hi! Can you tell me growth inhibition for each of these compounds?
1. O=C1COC(c2ccccc2O)=NN1Cc1ccccc1
2. COc1cc(OC)c(-c2cc(=O)c3c(OC)c(OC)c(OC)c(OC)c3o2)cc1OC
3. COC1COCOC1C(OC)C1OCOCC1OC (stereo not given)
4. O=C(N/N=C/c1ccc2c(c1)OCO2)c1ccccc1

1. -0.3
2. -3.8
3. -12.2
4. -11.1

###

Consider the following compounds; for each one, report its growth inhibition.
assay: NCI Yeast Anticancer Drug Screen. Data for the bub3 strain (AID 167); settings: S. cerevisiae bub3 mutant strain, hits give high values; at 50.0 µM unless noted
The panel holds about 79,000 compounds, 15% with a hit somewhere; the sample as a whole holds those more often. Activity calls are given as the source filed them. Rule as the data show it: active = growth inhibition above about 70%; inactive = the rest.

Consider the reported growth inhibition for these compounds:
{"SMILES CODE": "ClC(Cl)CN(Cc1ccccc1)c1ncc[nH]1", "growth inhibition": "8.05% (inactive)"}
{"SMILES CODE": "COc1cc(N=C=S)ccc1NC(=O)c1cc(Br)cc(Br)c1O", "growth inhibition": "1.15% (inactive)"}

Turning to the following compound.
Query (compound): `COc1cccc(N(CN2CC=CC2=O)C(C)=O)c1` ; field requested: growth inhibition
-16.8% (inactive)

###

assay: NCI Yeast Anticancer Drug Screen. Data for the sgs1 mgt1 strain (AID 161);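 note: 0% = growth of cultures given vehicle only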; conditions: S. cerevisiae sgs1 mgt1 strain, hits give high values; at 50.0 µM unless noted
This is part of a sample that, as a whole, favours compounds with a hit. Of some 79,000 tested, about 15% had one in any assay.
MEASURED ENDPOINT: growth inhibition (%)
Answers are plain numbers, in %.

Answered examples (4):
{"COMPOUND": "C[n+]1ccc(/C=N/O)cc1", "growth inhibition (%)": -0.45}
{"COMPOUND": "Cc1ccc(S(=O)(=O)CBr)cc1", "growth inhibition (%)": 6.9}
{"COMPOUND": "COc1ccccc1/C=C1\\C(=O)N(C(=O)c2ccc(NC(C)=O)cc2)N=C1C", "growth inhibition (%)": -34.8}
{"COMPOUND": "Cc1cn(C2CC(O)C(CO)O2)c(=O)nc1N1CCSCC1 (stereo not given)", "growth inhibition (%)": -2.6}

From here, focus on the item given below.
Please report the recorded growth inhibition for `CCOc1ccccc1N=Nc1c(-c2ccccc2)nn(C(=O)CC(=O)Nc2cccc(Cl)c2)c1-c1ccccc1` .
40.9

###

What growth inhibition was measured for each of the following?
Test: NCI Yeast Anticancer Drug Screen. Data for the mlh1 rad18 strain (AID 175)
Settings: S. cerevisiae mlh1 rad18 strain growth inhibition, hits give high values; at 50.0 µM unless noted
Description: Growth inhibition of yeast strains with defined genetic alterations is measured as a screen for potential anti-cancer activity. Selected strains with alterations in DNA damage repair or cell cycle control were exposed to compounds and growth inhibition was measured relative to vehicle treated controls. The strain used in this assay is mlh1 rad18
This is part of a sample that, as a whole, favours compounds with a hit. Of some 79,000 tested, about 15% had one in any assay.
Numbers only, in %.

Use these answered entries as a reference point.
{"COMPOUND": "ClCc1ccccc1C(c1ccccc1)c1ccccc1", "OBSERVED": 21.9}
{"COMPOUND": "CS(=O)(=O)OCC1OC(n2ncc(=O)[nH]c2=O)C(O)C1O (configuration not stated)", "OBSERVED": 11}
{"COMPOUND": "Nn1c(-c2ccccc2)nc2ccc(Br)cc2c1=O", "OBSERVED": 43.5}
{"COMPOUND": "Nc1ccc(S(=O)(=O)Nc2cc(C(F)(F)F)cc(C(F)(F)F)c2)cc1", "OBSERVED": 32}
{"COMPOUND": "O=C1c2c(Br)sc(Br)c2C(NC(=O)C(F)(F)F)C1O (configuration not stated)", "OBSERVED": -27.4}

# map each compound to its growth inhibition
1. COC1OC(COC(=O)NCCCCC(=O)C(F)(F)F)C(O)C(O)C1O (configuration not stated)
2. CN(C)c1ccc(S(=O)(=O)OC2C(C3COC(C)(C)O3)OC3OC(C)(C)OC32)cc1 (configuration not stated)
3. CCOC(=O)c1ccc(N(CCO)CCO)cc1
4. C/C(=N\NC(=S)Nc1ccccc1)[C@H]1C2CCC(C2)C1C/C=C\CCCC(=O)O (some centres not stated)
5. NC(=O)N/N=C(/Cc1nc2ccc(C(=O)c3ccccc3)cc2[nH]c1=O)C(=O)Nc1ccc(C(F)(F)F)cc1[N+](=O)[O-]
6. C/C(=N\NS(=O)(=O)c1c(C)cc(C)cc1C)c1ccc[n+]([O-])n1

1: 11.6; 2: 4.7; 3: 13.7; 4: 13.4; 5: 5.05; 6: -6.7

###

Task for the reader: assign each of the following compounds its reported growth inhibition.
experiment: NCI Yeast Anticancer Drug Screen. Data for the cln2 rad14 strain (AID 165);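 note: 0% = growth equal to vehicle treated cultures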; settings: S. cerevisiae cln2 rad14 strain, hits give high values; at 50.0 µM unless noted
Compounds without any hit were thinned out: in the full panel of roughly 79,000, 15% have a hit.
Numbers only, in %.

Below, 2 compounds whose answers are already recorded.
{"COMPOUND": "COC(=O)CN(CC(=O)NCCCBr)C1CCCCC1N(CC(=O)OC)CC(=O)OC (stereo not drawn)", "MEASUREMENT UNIT": "%", "growth inhibition": -23}
{"COMPOUND": "Cc1ccnc(NC#N)n1", "MEASUREMENT UNIT": "%", "growth inhibition": 19.1}

# query: growth inhibition of entry `Cc1cc[nH]c(=O)c1[N+](=O)[O-]`
-25.7

###

test: NCI Yeast Anticancer Drug Screen. Data for the bub3 strain (AID 167); conditions: S. cerevisiae bub3 mutant strain; at 50.0 µM unless noted
This is part of a sample that, as a whole, favours compounds with a hit. Of some 79,000 tested, about 15% had one in any assay. Active and inactive are the calls of the source. Cut-off read from the data, not from the text of the source: active = growth inhibition above about 70%; inactive = the rest.
Please reply with one of these outcomes: Y (active), N (inactive)

{"SMILES CODE": "CC/C=C/C(=O)CC(O)(C(F)(F)F)C(F)(F)F", "CATEGORY": "N"}
{"SMILES CODE": "Nc1cnccc1N1CCN(c2cccc3ccccc23)CC1", "CATEGORY": "Y"}
{"SMILES CODE": "Cc1cccc[n+]1C", "CATEGORY": "N"}
{"SMILES CODE": "c1ccc2c(c1)Cc1cc3ccccc3cc1C2", "CATEGORY": "N"}

What call does the record list for `CCCCNC(=O)/C=C/C(=O)NCCCC` ?
N

Could you please tell me the result logged for `[O-][N+](=Nc1ccc2c(c1)Cc1ccccc1-2)c1ccc2c(c1)Cc1ccccc1-2` in this assay?
N

What call does the record list for `C/C(N=NC(=S)N1CC2CCC(CC2)C1)=C1\C=CC=CN1O` ?
Y

###

test: NCI Yeast Anticancer Drug Screen. Data for the cln2 rad14 strain (AID 165);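 note: 0% = growth equal to vehicle treated cultures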; settings: S. cerevisiae cln2 rad14 strain, hits give high values; at 50.0 µM unless noted
About 79,000 compounds went through this panel and 15% of them were active in at least one assay; those are over-represented in the sample as a whole.
Consider the following compounds; for each one, report its growth inhibition.
One number for each entry, in %.

Observe how each entry below is paired with its result.
{"COMPOUND": "ClC(Cl)(Cl)c1ncnc2nc[nH]c12", "OBSERVED": 9.95}
{"COMPOUND": "COc1ccc2nc3ccccc3c(NCCC[N+](C)(C)[O-])c2c1[N+](=O)[O-]", "OBSERVED": -34.1}
{"COMPOUND": "Cc1ccc(C)c(CCCCS(=O)(=O)O)c1", "OBSERVED": -40.4}
{"COMPOUND": "Cn1c(O)c(N=NC(=O)Cc2c[nH]c3ccccc23)c2ccccc21", "OBSERVED": -7.05}
{"COMPOUND": "CC(=O)CCC(C)C1CCC2C3CCC4CCCCC4(C)C3CCC12C (stereo not drawn)", "OBSERVED": 13.8}

Give one value of growth inhibition per listed compound.
1. C/C(=N/N)c1ccc2[nH]c3c(C)cc([N+](=O)[O-])c(C)c3c2c1
2. COc1ccc(NS(=O)(=O)c2ccc(NC(CNC(C)S(=O)(=O)O)S(=O)(=O)O)cc2)cc1 (stereo not drawn)

1: 13.7; 2: 52.5

Record request: growth inhibition value, item `Cc1ccc2nc(-c3ccc(NC(=O)c4ccc(N)cc4)c(S(=O)(=O)O)c3)sc2c1`
-22
